test name: NCI Yeast Anticancer Drug Screen. Data for the cln2 rad14 strain (AID 165);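 note: 0% = growth equal to vehicle treated cultures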
measurement context: S. cerevisiae cln2 rad14 strain, at 50.0 µM, stronger effect = higher value
The panel holds about 79,000 compounds, 15% with a hit somewhere; the sample as a whole holds those more often. Activity calls are given as the source filed them. Cut-off read from the data, not from the text of the source: active = growth inhibition above about 70%; inactive = the rest.
value kind: growth inhibition

-- ask Return reported growth inhibition; argument: COCCNC(=O)C1C(=O)N(CCOC)C(=O)/C1=N/N (stereo not given)
-- reply 35% (inactive)

-- ask Could you tell me which growth inhibition is on file for C1=Nc2ccccc2/C1=C/c1ccccc1 ?
-- reply 40% (inactive)

-- ask So what's the measured growth inhibition for this one? Clc1ccc2c(NC3CCC(N4CCCCC4)CC3)ccnc2c1 (stereo not given)
-- reply 27.1% (inactive)

-- ask Reported growth inhibition, compound Cc1ccc(S(=O)(=O)NC(CCC(=O)Nc2ccccc2)C(=O)O)cc1 (stereo not given) : ____
-- reply 22% (inactive)

-- ask What value of growth inhibition has been reported for the following compound? O=C1C=CC(=O)c2nc3c(nc21)[nH]c1ccccc13
-- reply 93.5% (active)

-- ask Entry under review: CC(C)c1ncc(-c2ccccc2)cc1-c1ccccc1 . Reported growth inhibition?
-- reply 78.8% (active)

---
-- ask I am curious: what growth inhibition value has been reported for O=S1(=O)C(Br)=Cc2ccccc21 ?
-- reply 97.7% (active)

-- ask Item O=C1CCCCC1Sc1ccc(Cl)cc1 (stereo not given) has what recorded growth inhibition?
-- reply 76.1% (active)

-- ask What measured growth inhibition goes with CCCc1nc2c(nc1C)C(=O)C=CC2=O ?
-- reply 86.5% (active)

* * *

Listed below: growth inhibition values for each entry.
test name: NCI Yeast Anticancer Drug Screen. Data for the cln2 rad14 strain (AID 165);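 note: 0% = growth equal to vehicle treated cultures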
measurement context: S. cerevisiae cln2 rad14 strain, at 5.0 µM (retest, dose inferred, filed as 0.5), stronger effect = higher value
About 79,000 compounds went through this panel and 15% of them were active in at least one assay; those are over-represented in the sample as a whole.
Expressed in %, but write only the number.

Worked examples, 2 molecules total:
-- ask // lookup growth inhibition for Cc1cc2c(cc1S(=O)(=O)O)C1C(C3C2C2(Cl)C(Cl)=C(Cl)C3(Cl)C2(Cl)Cl)C2(Cl)C(Cl)=C(Cl)C1(Cl)C2(Cl)Cl (stereo not given)
-- reply 33

-- ask Sample CCCCNC(=S)NC1OC(CO)C(O)C(O)C1O (stereo not given) — what was its growth inhibition?
-- reply -4

Continuing:
-- ask # growth inhibition lookup, item CC1OC(CC(=O)O)Cc2c1c(O)c1c(O)cc(-c3cc(=O)c4c(=O)c5c(c(=O)c=4c3=O)CC(CC(=O)O)OC5C)c(O)c1c2O (stereo not given)
-- reply 1

-- ask Record request: growth inhibition value, item CC(C)(C)C(NO)C(O)N1CCCCC1 (stereo not given)
-- reply -63

-- ask Sample FC(F)(F)c1ccccc1NC(=S)SCc1ccc(Cl)cc1 — what was its growth inhibition?
-- reply -3

-- ask Value lookup for growth inhibition; key = Cc1c2ccncc2cc2c1sc1ccncc12
-- reply 87

-- ask I am curious: what growth inhibition value has been reported for CCOC(=O)N1C=C(C(=O)OC)C(c2ccccc2)C(C(=O)OC)=C1 ?
-- reply -5

-- ask growth inhibition lookup needed for NC(=O)SCC(=O)Nc1ccccc1 , thanks.
-- reply 5

-- ask Could you share which growth inhibition value was measured for Cc1ccc2c(c1)C1(SCC(=O)N1c1ccc(Cl)cc1)C(=O)N2 (stereo not given) ?
-- reply -1

-- ask Would you kindly share the measured growth inhibition for CN(C)CCCNc1ccc(O)c2c1C(=O)c1ccccc1C2=O ?
-- reply 32

* * *

test name: NCI Yeast Anticancer Drug Screen. Data for the cln2 rad14 strain (AID 165);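 note: 0% = growth equal to vehicle treated cultures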
measurement context: S. cerevisiae cln2 rad14 strain, at 50.0 µM (retest, dose inferred, filed as 5.0), stronger effect = higher value
About 79,000 compounds went through this panel and 15% of them were active in at least one assay; those are over-represented in the sample as a whole.
Use 70% as the dividing line for growth inhibition, with the line itself on the TRUE side and lower values as FALSE.

Worked examples, 2 molecules total:
-- ask Determine whether measured growth inhibition meets or exceeds 70% for O=C1OC(CC(=O)c2ccc(Cl)cc2Cl)C(Cl)=C1Cl (configuration not stated)
-- reply FALSE

-- ask # bool: growth inhibition of O=C(Nc1ccc(Cl)cc1)OCCOCCOC(=O)Nc1ccc(Cl)cc1 >= 70%
-- reply TRUE

New cases:
-- ask Dear colleague, could you confirm whether CCCCCCCCCCCCCCCCCCOC(=O)C(N)Cc1ccccc1 (configuration not stated) has growth inhibition at or above 70%?
-- reply FALSE

-- ask Form field: growth inhibition at least 70%? Entry: N=c1n(CC(=O)NC23CC4CC(CC(C4)C2)C3)c2ccccc2n1Cc1ccc(Cl)cc1
-- reply FALSE

-- ask Kindly determine if growth inhibition recorded for S=C(NC/C(Br)=C/Br)Nc1cccc2ccccc12 is above or exactly 70%.
-- reply TRUE

-- ask Hi team, for Cn1c(=O)c2c(nc(OCC(C)(C)C)n2C)n(C)c1=O , is the recorded growth inhibition at or above 70%?
-- reply FALSE

-- ask Could you tell me if the measured growth inhibition of CC1SC(c2ccc(Cl)cc2)N2C(=O)C(C)SC(c3ccc(Cl)cc3)N2C1=O (configuration not stated) reaches 70% or more?
-- reply TRUE

-- ask Can O=C1NC(=O)C(Cc2ccccc2)(Cc2ccccc2)S1 be said to have growth inhibition at or above 70%?
-- reply TRUE

-- ask Can C=CCNC(=S)N/N=C/c1nccc(-c2ccccc2)c1C be said to have growth inhibition at or above 70%?
-- reply TRUE

-- ask Textbook exercise: given the entry Cc1ccccc1C(=N)c1ccccc1Cc1cccc2ccccc12 , state whether its growth inhibition is greater than or equal to 70%.
-- reply TRUE

-- ask # bool: growth inhibition of Oc1c(Cl)cc(CN(Cc2cc(Cl)c(O)c(Cl)c2)C2CCCCC2)cc1Cl >= 70%
-- reply FALSE

-- ask Quick check: does O=C1C=C(c2ccccc2)OC(c2ccccc2)C1 (configuration not stated) have growth inhibition greater than or equal to 70%?
-- reply FALSE

* * *

test name: NCI Yeast Anticancer Drug Screen. Data for the bub3 strain (AID 167)
measurement context: S. cerevisiae bub3 mutant strain, at 50.0 µM (retest, dose inferred, filed as 5.0), stronger effect = higher value
The panel holds about 79,000 compounds, 15% with a hit somewhere; the sample as a whole holds those more often. The source made the active and inactive calls. No stated cut-off is given here; in the data, active means growth inhibition above about 70%; inactive means the rest.
value kind: growth inhibition

-- ask Quick one: growth inhibition of [Pt].c1ccc(P(CCP(CCP(c2ccccc2)c2ccccc2)CCP(c2ccccc2)c2ccccc2)c2ccccc2)cc1 ?
-- reply 92% (active)

-- ask Entry C#CCNC(C)(C)C has what growth inhibition?
-- reply -2% (inactive)

-- ask Give the measured growth inhibition of Cc1ccc(N2C(=O)CSC2=S)cc1Br .
-- reply 24% (inactive)

-- ask May I ask what growth inhibition has been recorded for S=C=NCCCCCCN=C=S ?
-- reply 99% (active)

-- ask Dear colleague, I am looking for the recorded growth inhibition of the following molecule: Cc1ccccc1Nc1nc(-c2ccccc2)nc(N)c1N=O
-- reply 97% (active)

Continuing:
-- ask For the molecule shown here, O=C1c2c(F)c(F)c(F)c(F)c2SC2=NCCN12 , give the reported growth inhibition.
-- reply 99% (active)

-- ask Fill in: growth inhibition of COc1ccc(-c2c(C#N)cc(OC)c(OC)c2OC)c(C=O)c1 is ___
-- reply 26% (inactive)

-- ask Consider the molecule CC1SC2(C(=O)Nc3ccc(Br)cc32)N(c2ccc(Cl)cc2)C1=O (stereo not given) and give its measured growth inhibition.
-- reply 99% (active)

* * *

test name: NCI Yeast Anticancer Drug Screen. Data for the bub3 strain (AID 167)
measurement context: S. cerevisiae bub3 mutant strain, at 50.0 µM (retest, dose inferred, filed as 5.0)
Compounds without any hit were thinned out: in the full panel of roughly 79,000, 15% have a hit. Calls of active or inactive are those of the source. Cut-off read from the data, not from the text of the source: active = growth inhibition above about 70%; inactive = the rest.
Could you please pick one outcome from this set? active, inactive

-- ask What is the recorded call for this compound in the test? Oc1c(Cl)cc(CN(Cc2cc(Cl)c(O)c(Cl)c2)C2CCCCC2)cc1Cl
-- reply active

-- ask Could you please tell me the result logged for COC(O)C12OC3CO[Si](C(C)C)(C(C)C)O[Si](C(C)C)(C(C)C)OC3C1Oc1nc(=O)ccn12 (stereo unspecified) in this assay?
-- reply active

-- ask What outcome does the record of this test show for COC(=O)[C@]1(C)CCC[C@]2(C)c3ccc(C(C)C)cc3C(=O)C[C@@H]12 ?
-- reply active

* * *

test name: NCI Yeast Anticancer Drug Screen. Data for the rad50 strain (AID 155);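 note: 0% = growth of vehicle-only cultures of the same strain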
measurement context: S. cerevisiae rad50 strain growth inhibition; at 50.0 µM (retest, dose inferred, filed as 5.0); stronger effect = higher value
This is part of a sample that, as a whole, favours compounds with a hit. Of some 79,000 tested, about 15% had one in any assay.
Classify by growth inhibition. Ranges: 1 = under 40%, 2 = from 40% up to 90%, 3 = 90% and over

These solved cases illustrate the format of a correct answer.
-- ask Please let me know in which category the item O=C(O)c1ccc(NCc2c(O)ccc3ccccc23)cc1 belongs.
-- reply 1

-- ask GET /class?item= CN(C)c1nc(=NCc2ccco2)ss1
-- reply 2

-- ask Class (by measured growth inhibition) for COc1ccc(-c2c3c(cc4cc5c(cc24)OCO5)C(=O)OC3)cc1OC
-- reply 3

-- ask # classify by growth inhibition band: CC(C)[C@H](N)C(=O)NCCNC(=O)[C@@H](N)C(C)C
-- reply 3

-- ask Sort S=C(Nc1cc(Cl)c(Cl)cc1Cl)SCc1ccccc1 into one of the categories.
-- reply 3

Further cases:
-- ask State the class of the molecule shown: CN(CCCN(CCO)CCO)C1CC(C)(C)N(O)C(C)(C)C1
-- reply 1

-- ask Returns: class label. Input: O=C(CSc1cc[o+]cc1)c1cccc([N+](=O)[O-])c1
-- reply 2

-- ask Could you place O=Nc1c(NO)c2ccccc2c2ccccc12 in its proper category? Many thanks.
-- reply 3

-- ask Bin? O=C(OC1C2CCC2C2CC21)c1ccc([N+](=O)[O-])cc1[N+](=O)[O-] (stereo not given)
-- reply 3

-- ask Hi there! Could you help me figure out the category for [Pt].c1ccc(P(CCP(CCP(c2ccccc2)c2ccccc2)CCP(c2ccccc2)c2ccccc2)c2ccccc2)cc1 please?
-- reply 2
